Here, each record is paired with measured CC50 data.
Experiment: Cytotoxicity against human CEM cells by coulter counter analysis
Format: cell-based
Settings: CEM (CCRF-CEM) cells
# number only, unit µM dropped from output

Some molecules with known CC50 results, for comparison:
                                chem_smiles  quantitative_result
0  Cc1cc(C)cc(S(=O)(=O)c2c(C(=O)NCc3ccccc3)[nH]c3ccc(Cl)c(F)c23)c1                   15
1  Cc1cc(C)cc(S(=O)(=O)c2c(C(=O)NCN3CCCCC3)[nH]c3ccc(Br)cc23)c1                   10
2  Cc1cc(C)cc(S(=O)(=O)c2c(C(=O)NCN3CCCC3)[nH]c3ccc(Cl)cc23)c1                   11

The reported CC50 of the molecule Cc1cc(C)cc(S(=O)(=O)c2c(C(=O)NCN3CCCCC3)[nH]c3ccc(Cl)c(F)c23)c1 was 32

The reported CC50 of the molecule Cc1cc(C)cc(S(=O)(=O)c2c(C(=O)NCN3CCOCC3)[nH]c3ccc([N+](=O)[O-])cc23)c1 was 46

The reported CC50 of the molecule Cc1cc(C)cc(S(=O)(=O)c2c(C(=O)NCCn3cccc3)[nH]c3ccc(Cl)c(F)c23)c1 was 9.8

The reported CC50 of the molecule Cc1cc(C)cc(S(=O)(=O)c2c(C(=O)NCCN3CCOCC3)[nH]c3ccc(Cl)cc23)c1 was 50

The reported CC50 of the molecule Cc1cc(C)cc(S(=O)(=O)c2c(C(=O)NCCN3CCOCC3)[nH]c3ccc(Cl)c(F)c23)c1 was 11

====

Here, each record is paired with measured IC50 data.
Biological target: Human immunodeficiency virus type 1 reverse transcriptase (Human immunodeficiency virus 1, UniProt Q72547, K103N)
Experiment: Inhibition of HIV1 reverse transcriptase K103N mutant expressed in Escherichia coli assessed as incorporation of [3H]dTTP into poly(rA)/oligo(dT) by scintillation counting
# number only, unit nM dropped from output

In [3]: df
Out[3]:
                                chem_smiles  endpoint_label  quantitative_result
0  Cc1cc(C)cc(S(=O)(=O)c2c(C(=O)NCN3CCCC3)[nH]c3ccc(Cl)cc23)c1            IC50                   96

Let us move to another entry and its IC50.
The reported IC50 of the molecule Cc1cc(C)cc(S(=O)(=O)c2c(C(=O)NCCN3CCCC3)[nH]c3ccc(Br)cc23)c1 was 697

====

System: Human immunodeficiency virus 1
Test: Antiviral activity against […] harboring reverse transcriptase K103N mutant infected in human MT-4 cells assessed as inhibition of virus-induced cytopathicity after 4 days by MTT assay
Assay type: functional, organism-based
Details: Human immunodeficiency virus 1, MT4, 96 h
Endpoint label: EC50 (nM)
# number only, unit nM dropped from output

Item Cc1cc(C)cc(S(=O)(=O)c2c(C(=O)NCN3CCOCC3)[nH]c3ccc(Cl)cc23)c1 ; assay system Human immunodeficiency virus 1; EC50 reported as 11

Item Cc1cc(C)cc(S(=O)(=O)c2c(C(=O)NCCn3cccc3)[nH]c3ccc(Cl)cc23)c1 ; assay system Human immunodeficiency virus 1; EC50 reported as 15

Item Cc1cc(C)cc(S(=O)(=O)c2c(C(=O)NCCN3CCCC3)[nH]c3ccc(Cl)cc23)c1 ; assay system Human immunodeficiency virus 1; EC50 reported as 80

Item Cc1cc(C)cc(S(=O)(=O)c2c(C(=O)NCc3ccccc3)[nH]c3ccc(Cl)cc23)c1 ; assay system Human immunodeficiency virus 1; EC50 reported as 11
